- Tested on: Ruminococcus gnavus DSM 108212
- ASSAY NAME: fold change of 2-Phenylethylamine concentration vs plate DMSO controls (fold change (ratio)); higher = more amine produced, active = hit call of the paper (significant change in both replicates, either direction);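 for the amine columns active = adjusted P below 0.05 in both replicates with a change the same way and a mean fold change under 0.8 or over 1.25; inactive = the rest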
- ASSAY SETUP: incubation time: 27 h, anaerobic, 37 °C
Where a name gives a salt, the structure may show the parent alone.
Can you answer with just one of these options? active, inactive

Ask: What did this assay record as the result for Cc1[nH]c(=O)c(C#N)cc1-c1ccncc1 [Milrinone] (20 µM) ?
Result: inactive

Ask: What did this assay record as the result for CCOC(=O)/C=C(C)/C=C/C=C(C)/C=C/c1c(C)cc(OC)c(C)c1C [Etretinate] (20 µM) ?
Result: inactive

Ask: What did this assay record as the result for CCCCCCOc1ccccc1C(N)=O [Exalamide] (20 µM) ?
Result: inactive

Ask: What did this assay record as the result for Cc1ccccc1C(=O)Nc1ccc(C(=O)N2CCCC(O)c3cc(Cl)ccc32)c(C)c1 (configuration not stated) [Tolvaptan] (20 µM) ?
Result: inactive

Ask: What did this assay record as the result for COc1cnc(NS(=O)(=O)c2ccc(N)cc2)nc1 [Sulfameter] (20 µM) ?
Result: inactive

Ask: What did this assay record as the result for N=C(N)NC(=O)c1nc(Cl)c(N)nc1N [Amiloride hydrochloride dihydrate] (20 µM) ?
Result: inactive

Ask: What did this assay record as the result for CN1C(=O)OC(C)(C)C1=O [Trimethadione] (20 µM) ?
Result: inactive

Ask: What did this assay record as the result for Cc1cc(NC(=O)C2=C(O)c3ccccc3S(=O)(=O)N2C)no1 [Isoxicam] (20 µM) ?
Result: inactive

Ask: What did this assay record as the result for CN1CCN(C(c2ccccc2)c2ccc(Cl)cc2)CC1 (configuration not stated) [Chlorcyclizine hydrochloride] (20 µM) ?
Result: inactive

Ask: What did this assay record as the result for CC(C)(C)NCC(O)CSc1nc(-c2ccc(C(N)=O)s2)cs1 (configuration not stated) [Arotinolol hydrochloride] (20 µM) ?
Result: inactive

Ask: What did this assay record as the result for CCc1cccc2c3c([nH]c12)C(CC)(CC(=O)O)OCC3 (configuration not stated) [Etodolac] (20 µM) ?
Result: inactive

Ask: What did this assay record as the result for C#C[C@]1(OC(C)=O)CC[C@H]2[C@@H]3CCC4=C[C@@H](OC(C)=O)CC[C@@H]4[C@H]3CC[C@@]21C [Ethynodiol diacetate] (20 µM) ?
Result: inactive

Ask: What did this assay record as the result for COC(=O)N/N=C/c1c[n+]([O-])c2ccccc2[n+]1[O-] [Carbadox] (20 µM) ?
Result: active

Ask: What did this assay record as the result for CC[C@H](C)C(=O)O[C@H]1CCC=C2C=C[C@H](C)[C@H](CC[C@@H]3C[C@@H](O)CC(=O)O3)[C@H]21 [Mevastatin] (20 µM) ?
Result: inactive

Ask: What did this assay record as the result for Brc1c(NC2=NCCN2)ccc2nccnc12 [Brimonidine L-tartrate] (20 µM) ?
Result: inactive

Ask: What did this assay record as the result for COc1cc2nc(N3CCN(C(=O)c4ccco4)CC3)nc(N)c2cc1OC [Prazosin hydrochloride] (20 µM) ?
Result: inactive

Ask: What did this assay record as the result for CC(C)Nc1ncccn1 [Isaxonine] (20 µM) ?
Result: inactive

Provenance of the data: the supplement of paper PMC12494721
